Target: human orexin-2 receptor (hOX2R) (Homo sapiens, UniProt O43614)
Test: FLIPR Ca2+ Flux Assay, hOX2R
Conditions: CHO cells expressing hOX2R; agonist Ala-6,12 human orexin-A 70 pM
Text: The utility of the compounds in accordance with the present invention as orexin receptor OX1R and/or OX2R antagonists may be readily determined without undue experimentation by methodology well known in the art, including the “FLIPR Ca^2+ Flux Assay” (Okumura et al., Biochem. Biophys. Res. Comm. 2001, 280:976-981). […] The intrinsic orexin receptor antagonist activity of a compound of the present invention may be determined by these assays. […]
measured_attribute: IC50 (nM)

# cpd_smiles, result_units, IC50
measured = [
    ("C[C@@H]1CC[C@@H](Oc2cc(F)ccn2)CN1C(=O)c1ccccc1-n1ncnn1", "nM", 55),
]

a. C[C@@H]1CC[C@@H](Oc2cc(I)ccn2)CN1C(=O)c1ccccc1-n1nccn1
b. COc1ccc(C(=O)N2C[C@H](Oc3nccc(I)c3OC)CC[C@H]2C)c(-n2nccn2)n1
Incoming: Select the item with the higher value of IC50 from the options a and b listed. Response format: the label of the selected entry.
Outgoing: b

P. C[C@@H]1CC[C@@H](Oc2cc(Br)ccn2)CN1C(=O)c1ccccc1-n1ncnn1
Q. C[C@@H]1CC[C@@H](Oc2nccc(C(F)(F)F)c2F)CN1C(=O)c1ccccc1-n1nccn1
R. C[C@@H]1CC[C@@H](Oc2cc(Br)ccn2)CN1C(=O)c1ccccc1-n1nccn1
Incoming: With regard to IC50, arrange the entries in ascending order, please. To answer, write out the labels according to the requested order.
Outgoing: R, P, Q

====

Target: human orexin-2 receptor (hOX2R) (Homo sapiens)
Construct: expressed in transfected cells; host or cells: Chinese hamster ovary (CHO) cells
Sequence (O43614 1-444): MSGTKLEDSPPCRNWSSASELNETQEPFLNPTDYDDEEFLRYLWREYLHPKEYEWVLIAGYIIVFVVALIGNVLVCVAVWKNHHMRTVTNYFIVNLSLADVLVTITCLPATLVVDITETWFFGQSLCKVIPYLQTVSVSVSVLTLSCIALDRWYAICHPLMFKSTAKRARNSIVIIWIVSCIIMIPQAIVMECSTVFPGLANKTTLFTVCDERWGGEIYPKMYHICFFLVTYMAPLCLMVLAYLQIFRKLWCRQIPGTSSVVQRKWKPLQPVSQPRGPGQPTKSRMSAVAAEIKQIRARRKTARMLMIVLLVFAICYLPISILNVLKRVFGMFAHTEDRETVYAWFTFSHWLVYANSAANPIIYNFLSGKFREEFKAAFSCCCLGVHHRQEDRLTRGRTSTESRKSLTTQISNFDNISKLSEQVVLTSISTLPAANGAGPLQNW
Assay: FLIPR Ca2+ Flux Assay, hOX2R
Assay type: cell-based
Conditions: CHO cells expressing hOX2R; agonist Ala-6,12 human orexin-A 70 pM
measured_attribute: IC50 (nM)

Look over these answered cases.
# cpd_smiles, result_units, IC50
records = [
    ("C[C@@H]1CC[C@@H](Oc2cc(C(F)(F)F)ccn2)CN1C(=O)c1ccccc1-n1ncnn1", "nM", 10),
    ("COc1ccc(C(=O)N2C[C@H](Oc3nccc(I)c3OC)CC[C@H]2C)c(-c2ncccn2)n1", "nM", 78.7),
    ("C[C@@H]1CC[C@@H](Oc2cc(Cl)ccn2)CN1C(=O)c1ccccc1-n1nccn1", "nM", 10.8),
]

1. C[C@@H]1CC[C@@H](Oc2cc(Cl)ccn2)CN1C(=O)c1ccccc1-n1ncnn1
2. COc1ccc(C(=O)N2C[C@H](Oc3cc(Cl)ccn3)CC[C@H]2C)c(-n2nccn2)n1
3. C[C@@H]1CC[C@@H](Oc2cc(F)ccn2)CN1C(=O)c1ccccc1-n1nccn1
Incoming: Kindly order the items shown according to IC50, from the highest value down. Answer by listing the labels in the order asked for.
Outgoing: 2, 3, 1
